B1: library; a variant is named by its letters at N, in order (parent)
chain: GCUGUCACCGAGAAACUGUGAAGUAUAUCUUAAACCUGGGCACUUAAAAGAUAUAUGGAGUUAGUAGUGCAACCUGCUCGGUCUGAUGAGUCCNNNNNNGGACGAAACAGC

variants of: B1; test: FACS-Seq fitted mean relative fluorescence mCherry/BFP with ligand (log10 relative fluorescence); HEK293T; ligand: cyclic di-GMP (c-di-GMP-II aptamer); ligand concentration (+) FACS-Seq: 1 mM; higher = higher reporter protein expression; conditions: ligand present: yes
For each entry below, report its FACS-Seq fitted mean (log10) value.
Give bare numbers.

UCACCA	0.366
CUGGAA	-0.397
CCUGCC	-0.0275

// input: 7 variants below; output: FACS-Seq fitted mean (log10) for each
1. UAAGUU
2. AUUCGC
3. GUUCUG
4. AGAACU
5. GUAGCA
6. GAGAGA
7. ACACUA

[0.229, 0.194, 0.284, -0.561, 0.201, -0.733, -0.414]

// input: 8 variants below; output: FACS-Seq fitted mean (log10) for each
1. GCCGUG
2. CACAAA
3. CCACCU
4. CUAAUU
5. GCGGUU
6. GUAAAA
7. CGGGUA
8. CCCUGC

1. 0.0457
2. -0.278
3. -0.107
4. 0.0103
5. -0.254
6. 0.00851
7. 0.207
8. 0.142
